Source: ChEMBL document CHEMBL3991601

A short record of Kd observed with Serine/threonine-protein kinase PAK 4 (Homo sapiens) follows.
Sequence (O96013 whole entry): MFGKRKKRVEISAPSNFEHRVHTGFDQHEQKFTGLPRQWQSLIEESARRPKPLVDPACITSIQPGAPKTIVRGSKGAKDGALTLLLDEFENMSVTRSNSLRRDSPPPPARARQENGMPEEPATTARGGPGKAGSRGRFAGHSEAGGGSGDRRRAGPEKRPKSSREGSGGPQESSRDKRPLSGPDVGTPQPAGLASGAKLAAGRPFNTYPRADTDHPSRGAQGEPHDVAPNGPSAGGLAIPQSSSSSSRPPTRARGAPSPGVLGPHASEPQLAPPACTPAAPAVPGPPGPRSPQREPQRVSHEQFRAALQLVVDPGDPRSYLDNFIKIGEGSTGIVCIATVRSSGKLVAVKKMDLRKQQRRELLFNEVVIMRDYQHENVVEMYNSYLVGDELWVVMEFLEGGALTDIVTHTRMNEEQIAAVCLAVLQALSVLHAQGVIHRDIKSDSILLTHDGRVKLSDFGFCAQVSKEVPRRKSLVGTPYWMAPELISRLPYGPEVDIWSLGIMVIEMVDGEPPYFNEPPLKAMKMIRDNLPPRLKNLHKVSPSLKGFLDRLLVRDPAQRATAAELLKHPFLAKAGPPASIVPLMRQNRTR
Active and inactive are the calls of the source.

>  <structure>
Cc1cc(Nc2ncc(Cl)c(Nc3ccccc3S(=O)(=O)C(C)C)n2)c(OC(C)C)cc1C1CCNCC1

>  <system_tested>
Serine/threonine-protein kinase PAK 4 (Homo sapiens); also: in the data inactive means no Kd found up to 30 µM

>  <experimental_result>
> 30 µM (inactive)

$$$$
>  <structure>
CNC(=O)c1cccc2cc(Oc3ccnc4cc(OCC5(N)CC5)c(OC)cc34)ccc12

>  <system_tested>
Serine/threonine-protein kinase PAK 4 (Homo sapiens); also: in the data inactive means no Kd found up to 30 µM

>  <experimental_result>
> 30 µM (inactive)

$$$$
>  <structure>
CCn1cc(-c2ccnc3[nH]c(-c4cccc(CN(C)C)c4)cc23)c(-c2ccc(NC(=O)N(C)C)cc2)n1

>  <system_tested>
Serine/threonine-protein kinase PAK 4 (Homo sapiens); also: in the data inactive means no Kd found up to 30 µM

>  <experimental_result>
> 30 µM (inactive)

$$$$
>  <structure>
CN1C/C=C/CCOc2cccc(c2)-c2ccnc(n2)Nc2cccc(c2)C1

>  <system_tested>
Serine/threonine-protein kinase PAK 4 (Homo sapiens); also: in the data inactive means no Kd found up to 30 µM

>  <experimental_result>
> 30 µM (inactive)

$$$$
>  <structure>
COc1cc2c(Nc3ccc(Cl)c(Cl)c3F)ncnc2cc1OC[C@@H]1C[C@@H]2CN(C)C[C@@H]2C1

>  <system_tested>
Serine/threonine-protein kinase PAK 4 (Homo sapiens); also: in the data inactive means no Kd found up to 30 µM

>  <experimental_result>
> 30 µM (inactive)

$$$$

Query: Look up Kd of Cn1cc(-c2cnc3ccc4ccc(CS(=O)(=O)NCc5ccccn5)cc4c(=O)c3c2)cn1 and report it.
Result: > 30 µM (inactive)

Query: Look up Kd of O=C(Nc1cc(C(F)(F)F)cc(C(F)(F)F)c1)c1cc(Cl)ccc1O and report it.
Result: > 30 µM (inactive)

Query: Look up Kd of Cc1cnc(NC(=O)Nc2cc(Br)c(C)cc2OC[C@@H]2CNCCO2)cn1 and report it.
Result: > 30 µM (inactive)
